Values were extracted from a melting point compilation (Tetko et al.; mined from patent text by program, amines drawn as free bases though some values may be those of a salt).

endpoint-name: melting point

Please review the following examples before continuing.
{"molecule": "COC1=C(c2ccccc2)C(CC(=O)O)OC1=O (centres undefined)", "result": "159 to 160 °C"}
{"molecule": "O=C(Cn1nnc2ccccc21)Nc1ccc(-n2nc(C3CC3)cc2C2CC2)c(F)c1", "result": "201 to 203 °C"}
{"molecule": "Nc1nc2ccccc2c2c1ncn2COCc1ccccc1", "result": "168 to 172 °C"}
{"molecule": "O=c1[nH]c(=O)n(Cc2ccc(Oc3ccc(Cn4oc(=O)[nH]c4=O)cc3)cc2)o1", "result": "175 to 178 °C"}

So what's the measured melting point for this one? CC1(C)Oc2ccc(C#N)cc2C(n2ccccc2=O)C1=O (centres undefined) 178 °C

====

endpoint-name: melting point

{"compound": "CC(C)CNc1c([N+](=O)[O-])cnc2ccccc12", "melting point": "114 to 118 °C"}
{"compound": "COCCOc1cc2ncnc(NC3=CC(=O)C(Br)=CC3=O)c2cc1OC", "melting point": "200 to 210 °C"}
{"compound": "CCOc1ccc(-c2cn(C)c(SCC)n2)cc1", "melting point": "98.2 °C"}
{"compound": "FC(F)C(F)(F)Oc1cccc(Nc2nccc(-c3cccs3)n2)c1", "melting point": "115 to 116 °C"}
{"compound": "O=C1c2ccccc2C(O)(c2ccc(F)cc2)C2=NC3CCCCC3N12 (stereo unspecified)", "melting point": "203 to 205 °C"}

Sample COc1cc(N)c(C#N)cc1C(=O)O — what was its melting point? 237 °C

Need melting point of Nc1nc2[nH]c3ccccc3c2c(=O)[nH]1 , thanks. > 340 °C

What does the record list as melting point for COc1ccc(C(C)OC)c(OC)c1C(O)c1cn(C(c2ccccc2)(c2ccccc2)c2ccccc2)cn1 (stereo unspecified) ? 96 to 99 °C

Which melting point value is on record for Cc1ccccc1-c1ccc(C(=O)N2Cc3ccc(C(=O)NC(C)c4ccccc4)n3Cc3ccccc32)cc1C (stereo unspecified) ? 118 to 124 °C

====

Collected melting point values appear next to each entry.

Which melting point is reported for this compound? CNC(=O)c1ccccc1Nc1nc(Nc2ccc3c(c2)CCN(C(C)C)CC3)ncc1Cl 140 to 158 °C

For OC1CC2(CCNC2)c2ccc(F)cc21 (stereo unspecified) , what is its reported melting point? 162 to 164 °C

What does the data say about its melting point? Entry: NC(=O)c1ccc2c(c1-c1c(C(N)=O)ccc3c1OCO3)OCO2 249 to 250 °C

# input compound: CN(C)CCCC(=O)Nc1nc2c(s1)-c1c(cnn1-c1ccccc1)C2 ; wanted: its melting point 218 to 222 °C

# melting point lookup, item CCCc1cc2ccc(CC(=O)O)cc2[nH]1 85 to 87 °C

GET /values?readout=melting point&item= Cc1cc(N2CCN(Cc3ccc(C(F)(F)F)cc3)C2=O)sc1C(=O)NCc1cccnc1 102 to 104 °C

// melting point lookup, key: CCC(O)(c1ccc(O)cc1)c1ccc(C(F)(F)F)cc1 (stereo unspecified) 126 to 127 °C

Consider the compound COc1ccc(NC(=O)c2ccccc2)cc1NC(=S)Nc1cc(Cl)cc(Cl)c1 and give its measured melting point. 194 to 195 °C

GET /values?readout=melting point&item= COc1cc(-c2nn(C)c(C(F)(F)F)c2Cl)c(F)cc1Cl 70 to 71 °C

Give its melting point value. Item: CN(C)C=C(C#N)C(=O)Nc1ccccc1Br 140 to 141 °C

Please report the recorded melting point for CC(=O)Oc1cccc(C(=O)O)c1C . 147 to 148 °C
